Can you tell me remaining activity at 0.01 µM for the items I'm about to list?
biological target: CDK9 (Homo sapiens (Human), UniProt P50750); assay: In vitro kinase inhibition, KinaseProfiler service of Millipore, residual activity; format: biochemical; conditions: residual activity at 10 nM compound; read-out: CDK9 10 nM (RA in %)
Sequence (P50750 whole entry): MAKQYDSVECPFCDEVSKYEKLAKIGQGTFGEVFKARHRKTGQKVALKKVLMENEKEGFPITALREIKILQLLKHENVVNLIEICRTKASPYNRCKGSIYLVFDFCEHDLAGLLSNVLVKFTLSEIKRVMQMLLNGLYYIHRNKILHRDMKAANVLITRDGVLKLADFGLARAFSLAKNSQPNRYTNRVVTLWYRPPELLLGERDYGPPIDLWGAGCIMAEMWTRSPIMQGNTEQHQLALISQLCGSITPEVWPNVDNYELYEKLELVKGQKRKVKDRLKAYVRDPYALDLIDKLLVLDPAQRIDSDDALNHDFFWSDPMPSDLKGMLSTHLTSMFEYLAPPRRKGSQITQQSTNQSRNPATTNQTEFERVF
Sequence (O60563 whole entry partner): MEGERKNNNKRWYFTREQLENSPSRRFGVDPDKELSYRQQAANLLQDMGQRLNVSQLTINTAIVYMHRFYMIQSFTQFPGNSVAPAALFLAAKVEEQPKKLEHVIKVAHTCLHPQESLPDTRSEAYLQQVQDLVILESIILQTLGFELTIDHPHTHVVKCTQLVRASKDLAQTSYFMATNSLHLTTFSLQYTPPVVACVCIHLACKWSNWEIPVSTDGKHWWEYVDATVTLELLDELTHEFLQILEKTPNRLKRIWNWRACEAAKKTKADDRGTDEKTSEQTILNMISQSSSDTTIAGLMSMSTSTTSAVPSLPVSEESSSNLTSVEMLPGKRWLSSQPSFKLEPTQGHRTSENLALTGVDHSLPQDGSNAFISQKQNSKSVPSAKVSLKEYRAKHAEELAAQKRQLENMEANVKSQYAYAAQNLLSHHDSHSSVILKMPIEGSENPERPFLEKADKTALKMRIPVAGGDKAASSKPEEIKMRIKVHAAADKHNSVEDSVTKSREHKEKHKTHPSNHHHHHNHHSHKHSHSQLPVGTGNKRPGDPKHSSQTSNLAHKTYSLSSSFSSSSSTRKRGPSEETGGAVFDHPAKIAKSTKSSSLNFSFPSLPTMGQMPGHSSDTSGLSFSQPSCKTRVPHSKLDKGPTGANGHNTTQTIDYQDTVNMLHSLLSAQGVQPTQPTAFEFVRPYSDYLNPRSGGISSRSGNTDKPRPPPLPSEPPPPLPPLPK
Express it in %; write the number only.

Enquiry: State the recorded remaining activity at 0.01 µM for this entry: COc1cc(F)ccc1-c1ccnc(NC(=O)C(C)c2ccncc2)c1 (stereo not drawn)
Return: 84

Enquiry: Field request: remaining activity at 0.01 µM | item: COc1cc(F)ccc1-c1ccnc(NC(=O)C(C)c2cccnc2)c1 (stereo not drawn)
Return: 66

Enquiry: Query (compound): `COc1cc(F)ccc1-c1ccnc(NC(=O)[C@@H]2CC[C@H](NCc3ccccc3)C2)c1` ; field requested: remaining activity at 0.01 µM
Return: 20

Enquiry: Value lookup for remaining activity at 0.01 µM; key = `COc1cc(F)ccc1-c1ccnc(NC(=O)[C@H]2CC[C@@H](Nc3nccs3)CC2)c1`
Return: 36

Enquiry: Bench note: what remaining activity at 0.01 µM did `COc1cc(F)ccc1-c1ccnc(NC(=O)[C@@H]2CC[C@H](Nc3ccccc3)C2)c1` show?
Return: 60

Enquiry: I'd like to know its remaining activity at 0.01 µM. The compound in question is COc1cc(F)ccc1-c1ccnc(NC(=O)CC(C)c2ccc(N3CCN(C)CC3)cc2)c1 (stereo not drawn)
Return: 95

Enquiry: What does the data say about its remaining activity at 0.01 µM? Entry: `COc1cc(F)ccc1-c1ccnc(NC(=O)C2CCCCC2)c1`
Return: 88

Enquiry: Could you tell me which remaining activity at 0.01 µM is on file for `COc1cc(F)ccc1-c1ccnc(NC(=O)[C@H]2CC[C@@H](Nc3ccccn3)CC2)c1` ?
Return: 29

Enquiry: Recorded remaining activity at 0.01 µM of `COc1cc(F)ccc1-c1ccnc(NC(=O)[C@@H]2CCC[C@H](NC(C)=O)C2)c1` , please.
Return: 89

Enquiry: Look up remaining activity at 0.01 µM for this compound: `COc1cc(F)ccc1-c1ccnc(NC(=O)Cc2cccs2)c1`
Return: 76

Enquiry: Given the compound COc1cc(F)ccc1-c1ccnc(NC(=O)CC(C)c2cccnc2)c1 (stereo not drawn) , what is its reported remaining activity at 0.01 µM?
Return: 95

Enquiry: Consider the compound shown here: `COc1cc(F)ccc1-c1ccnc(NC(=O)CC2CCCCC2)c1` What is its recorded remaining activity at 0.01 µM?
Return: 78
